Target: soluble guanylate cyclase (sGC) (Homo sapiens (Human), UniProt Q02108+Q02153)
Sequence (Q02153 whole entry): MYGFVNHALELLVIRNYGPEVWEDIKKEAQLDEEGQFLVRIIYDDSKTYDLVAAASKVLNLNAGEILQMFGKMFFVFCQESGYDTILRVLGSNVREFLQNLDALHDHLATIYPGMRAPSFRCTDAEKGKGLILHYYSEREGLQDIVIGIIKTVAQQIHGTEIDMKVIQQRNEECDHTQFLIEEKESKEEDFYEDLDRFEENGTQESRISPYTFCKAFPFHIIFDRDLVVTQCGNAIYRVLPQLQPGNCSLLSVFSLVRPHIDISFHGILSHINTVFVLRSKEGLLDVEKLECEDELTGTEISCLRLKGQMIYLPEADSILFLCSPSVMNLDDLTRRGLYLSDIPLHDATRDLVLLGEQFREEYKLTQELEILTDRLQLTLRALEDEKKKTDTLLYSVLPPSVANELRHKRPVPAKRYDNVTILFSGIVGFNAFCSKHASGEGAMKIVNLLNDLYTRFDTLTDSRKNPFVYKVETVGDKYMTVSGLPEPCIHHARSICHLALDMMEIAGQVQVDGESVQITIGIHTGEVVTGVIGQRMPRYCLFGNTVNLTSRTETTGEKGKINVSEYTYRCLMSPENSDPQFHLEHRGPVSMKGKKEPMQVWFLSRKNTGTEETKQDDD
Sequence (Q02108 whole entry): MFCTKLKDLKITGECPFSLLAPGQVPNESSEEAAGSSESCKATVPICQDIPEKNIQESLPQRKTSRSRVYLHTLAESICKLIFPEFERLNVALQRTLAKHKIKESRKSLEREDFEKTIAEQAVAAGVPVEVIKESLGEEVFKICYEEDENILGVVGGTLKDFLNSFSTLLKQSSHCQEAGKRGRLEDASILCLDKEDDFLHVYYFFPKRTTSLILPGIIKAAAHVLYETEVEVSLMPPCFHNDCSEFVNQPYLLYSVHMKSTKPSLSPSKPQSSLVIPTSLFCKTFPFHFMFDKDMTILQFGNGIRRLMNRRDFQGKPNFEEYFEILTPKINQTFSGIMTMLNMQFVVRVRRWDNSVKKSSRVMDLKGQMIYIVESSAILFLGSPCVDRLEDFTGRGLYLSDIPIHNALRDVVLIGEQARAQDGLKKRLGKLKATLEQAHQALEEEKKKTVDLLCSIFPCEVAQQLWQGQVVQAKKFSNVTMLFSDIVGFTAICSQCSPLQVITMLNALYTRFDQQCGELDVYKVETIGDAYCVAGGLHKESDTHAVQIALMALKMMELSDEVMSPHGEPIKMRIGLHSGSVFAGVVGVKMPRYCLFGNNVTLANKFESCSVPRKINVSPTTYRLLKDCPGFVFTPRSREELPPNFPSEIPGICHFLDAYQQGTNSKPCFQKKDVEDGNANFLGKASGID
Assay: sGC-HEK-cGMP assay run with SNP incubation (HEK WC assay)
Format: cell-based
Details: read-out: HEK WC Assay (% Emax at 10 μM/with 10 uM SNP)
attribute.measured: Emax at 10 µM

Take a look at these entries with their results.
- compound: "CC(=O)Nc1c(N)nc(-c2cc(-c3nccs3)n(Cc3ccccc3F)n2)nc1N [Compound I-94]"
  measured.value: "0 to 10%"
- compound: "Fc1ccccc1Cn1nc(-c2ccccn2)cc1-c1ncccn1 [Compound I-80]"
  measured.value: "0 to 10%"
- compound: "Nc1nc(-c2cc(-c3ccon3)n(Cc3ccccc3F)n2)ncc1-c1ccncc1 [Compound I-102]"
  measured.value: "40 to 60%"

Shift focus to the following entry.
Supply recorded Emax at 10 µM for Nc1nc(-c2cc(-c3ccon3)n(Cc3ccccc3F)n2)ncc1-c1nccs1 [Compound I-108] here.
20 to 40%
